# target_system: N-type Ca2+ channels in IMR-32 cells (Homo sapiens)
# Construct: host or cells: IMR-32 cells, differentiated with dibutyryl cAMP and bromodeoxyuridine
# protocol: Inhibition of N-type calcium flux in IMR-32 cells (Indo-1 fluorescence, nitrendipine present)
# Format: cell-based
# applied_conditions: IMR-32
*1 amine or outer side, *2 acyl side, *3 side chain or, on linkers, in order; H or OH if unused. Where a SMILES comes first, the peptide text is derived from it. The star is where a group is joined. Piperidide = C1CCN(*)CC1; CO = O=C([*:1])[*:2]; Bn = c1ccc(C*)cc1; OtBu = CC(C)(C)O*
Measured inhibition at 1 µM accompanies every entry in the list below.
Write the numeric value and append its unit.

As a guide, the following entries are already answered.
IN: Which measured inhibition at 1 µM value corresponds to COC(=O)[C@H](Cc1ccc(OCc2ccccc2)cc1)NC(=O)[C@H](CC(C)C)NC(=O)N1CCCCCC1 ?
OUT: 45%

IN: Which measured inhibition at 1 µM value corresponds to CC(C)C[C@H](NC(=O)N1CCCCCC1)C(=O)N[C@@H](Cc1ccc(OCc2ccccc2)cc1)C(=O)NC1CCN(Cc2ccccc2)CC1 ?
OUT: 70%

IN: Which measured inhibition at 1 µM value corresponds to COc1ccc(COc2ccc(C[C@H](NC(=O)[C@H](CC(C)C)NC(=O)N3CCCCCC3)C(=O)OC(C)(C)C)cc2)cc1 ?
OUT: 52%

New cases:
IN: Which measured inhibition at 1 µM value corresponds to CC(C)C[C@H](NC(=O)N1CCCCCC1)C(=O)N[C@@H](Cc1ccc(OCc2ccccc2)cc1)C(=O)NCc1ccc(CN)cc1 ?
OUT: 35%

IN: Which measured inhibition at 1 µM value corresponds to CC(C)C[C@H](NS(=O)(=O)N1CCCCC1)C(=O)N[C@@H](Cc1ccc(OCc2ccccc2)cc1)C(=O)OC(C)(C)C ?
OUT: 51%

IN: Which measured inhibition at 1 µM value corresponds to CC(C)C[C@H](NC(=O)N1CCCCCC1)C(=O)N[C@@H](Cc1ccc(C#CC2CCCCC2)cc1)C(=O)NC(C)(C)C ?
OUT: 45%

IN: Which measured inhibition at 1 µM value corresponds to CC(C)C[C@H](NC(=O)N1CCCCC1)C(=O)N[C@@H](Cc1ccc(OCc2ccccc2)cc1)C(=O)OC(C)(C)C [Example 33] ({Piperidide-CO}-Leu-Tyr(Bn)-OtBu) ?
OUT: 48%

IN: Which measured inhibition at 1 µM value corresponds to CC(C)C[C@H](NS(=O)(=O)N1CCOCC1)C(=O)N[C@@H](Cc1ccc(OCc2ccccc2)cc1)C(=O)OC(C)(C)C ?
OUT: 50%

IN: Which measured inhibition at 1 µM value corresponds to CC(C)C[C@H](NC(=O)N1CCCCCC1)C(=O)N[C@@H](Cc1ccc(OCc2ccncc2)cc1)C(=O)OC(C)(C)C ?
OUT: 44%

* * *

# target_system: N-type Ca2+ channels in IMR-32 cells (Homo sapiens)
# Construct: host or cells: IMR-32 cells, differentiated with dibutyryl cAMP and bromodeoxyuridine
# protocol: Inhibition of N-type calcium flux in IMR-32 cells (Indo-1 fluorescence, nitrendipine present)
# Format: cell-based
# applied_conditions: IMR-32
measurement_kind: inhibition at 1 µM
Write the numeric value and append its unit.

As a guide, the following entries are already answered.
IN: For the record CC(C)(C)OC(=O)[C@@H](Cc1ccc(OCc2ccccc2)cc1)NC(=O)[C@H](Cc1ccccc1)NC(=O)N1CCCCCC1 [Example 18] , what value of inhibition at 1 µM is listed for N-type Ca2+ channels in IMR-32 cells (Homo sapiens)?
OUT: 50%

IN: For the record CC(C)C[C@H](NC(=O)N1CCCCCC1)C(=O)N[C@@H](Cc1ccc(OCc2cccc(NC(=O)OC(C)(C)C)c2)cc1)C(=O)OC(C)(C)C [Example 28] , what value of inhibition at 1 µM is listed for N-type Ca2+ channels in IMR-32 cells (Homo sapiens)?
OUT: 42%

New cases:
IN: For the record CC(C)CC(NC(=O)N1CCCCCC1)C(=O)NC(Cc1ccc(OCc2ccccc2)cc1)C(=O)NC(CO)C(C)C (stereo not drawn) [Example 253] , what value of inhibition at 1 µM is listed for N-type Ca2+ channels in IMR-32 cells (Homo sapiens)?
OUT: 60%

IN: For the record CC(C)C[C@H](NS(=O)(=O)N1CCCCCC1)C(=O)N[C@@H](Cc1ccc(OCc2ccccc2)cc1)C(=O)OC(C)(C)C [Example 40] , what value of inhibition at 1 µM is listed for N-type Ca2+ channels in IMR-32 cells (Homo sapiens)?
OUT: 48%

IN: For the record CC(C)C[C@H](NC(=O)N1CCCCCC1)C(=O)N[C@@H](Cc1ccc(OCc2ccccc2)cc1)C(=O)OC(C)(C)C [Example 1] , what value of inhibition at 1 µM is listed for N-type Ca2+ channels in IMR-32 cells (Homo sapiens)?
OUT: 71%

IN: For the record CC(C)C[C@H](NC(=O)N1CCCCCC1)C(=O)N[C@@H](Cc1ccc(OCc2ccccc2)cc1)C(=O)NC1CCCCCC1 [Example 208] , what value of inhibition at 1 µM is listed for N-type Ca2+ channels in IMR-32 cells (Homo sapiens)?
OUT: 38%

* * *

# target_system: N-type Ca2+ channels in superior cervical ganglion (SCG) neurons (Rattus norvegicus, UniProt Q02294)
# protocol: Whole-cell voltage clamp, N-type Ca2+ current in SCG neurons
# applied_conditions: read-out: Inhibition of N-type Ca2+ Current IC50
measurement_kind: pIC50
Please treat pIC50 as minus the base-10 logarithm of the molar concentration.

As a guide, the following entries are already answered.
IN: Which measured pIC50 value corresponds to CC(C)C[C@H](NC(=O)N1CCCCCC1)C(=O)N[C@@H](Cc1ccc(OCc2cccnc2)cc1)C(=O)OC(C)(C)C ?
OUT: 5.48

IN: Which measured pIC50 value corresponds to CC(C)CC(NC(=O)N1CCCCCC1)C(=O)NC(Cc1ccc(OCc2ccccc2)cc1)C(=O)NC(C)C(C)C (stereo not shown) [Example 191] ?
OUT: 5.36

IN: Which measured pIC50 value corresponds to CC(C)C[C@H](NC(=O)N1CCOCC1)C(=O)N[C@@H](Cc1ccc(OCc2ccccc2)cc1)C(=O)NCCN1CCCCC1 ?
OUT: 5.69

New cases:
IN: Which measured pIC50 value corresponds to CC(C)C[C@H](NC(=O)N1CCCCCC1)C(=O)N[C@@H](Cc1ccc(OCc2ccccc2)cc1)C(=O)NC(C)(C)C ?
OUT: 5.49

IN: Which measured pIC50 value corresponds to CC(C)C[C@H](NC(=O)N1CCCCCC1)C(=O)N[C@@H](Cc1ccc(OCc2ccccn2)cc1)C(=O)OC(C)(C)C ?
OUT: 5.27

IN: Which measured pIC50 value corresponds to CC(C)C[C@H](NC(=O)N1CCCCCC1)C(=O)N[C@@H](Cc1ccc(OCc2ccccc2)cc1)C(=O)OC(C)(C)C ?
OUT: 5.90

IN: Which measured pIC50 value corresponds to CC(C)CC(NC(=O)N1CCCCCC1)C(=O)NC(Cc1ccc(OCc2ccccc2)cc1)C(=O)NC(C)C(C)C (stereo not shown) [Example 192] ?
OUT: 5.55

IN: Which measured pIC50 value corresponds to CCC(C)[C@H](NC(=O)N1CCCCCC1)C(=O)N[C@@H](Cc1ccc(OCc2ccccc2)cc1)C(=O)OC(C)(C)C (stereo partly shown) ?
OUT: 6.21

IN: Which measured pIC50 value corresponds to C[C@H](NC(=O)N1CCCCCC1)C(=O)N[C@@H](Cc1ccc(OCc2ccccc2)cc1)C(=O)OC(C)(C)C (relative stereo) ?
OUT: 5.64

IN: Which measured pIC50 value corresponds to CC(C)(C)OC(=O)[C@H](Cc1ccc(OCc2ccccc2)cc1)NC(=O)CNC(=O)N1CCCCCC1 (stereo in doubt) ?
OUT: 5.72

IN: Which measured pIC50 value corresponds to CC(C)C[C@H](NC(=O)N1CCCCCC1)C(=O)N[C@@H](Cc1ccc(OCc2ccccc2)cc1)C(=O)NCCO ?
OUT: 5.63

IN: Which measured pIC50 value corresponds to CC(C)C[C@H](NC(=O)N1CCCCCC1)C(=O)N[C@@H](Cc1ccc(OC(C)(C)C)cc1)C(=O)OC(C)(C)C ?
OUT: 5.17

IN: Which measured pIC50 value corresponds to CC(C)C[C@H](NC(=O)N1CCCCCC1)C(=O)N[C@@H](Cc1ccc(OCc2ccccc2)cc1)C(=O)NCCCNC1CCCCC1 ?
OUT: 5.92

* * *

# target_system: N-type Ca2+ channels in IMR-32 cells (Homo sapiens, UniProt Q00975)
# Construct: host or cells: IMR-32 cells, differentiated with dibutyryl cAMP and bromodeoxyuridine
# Sequence (Q00975 whole entry): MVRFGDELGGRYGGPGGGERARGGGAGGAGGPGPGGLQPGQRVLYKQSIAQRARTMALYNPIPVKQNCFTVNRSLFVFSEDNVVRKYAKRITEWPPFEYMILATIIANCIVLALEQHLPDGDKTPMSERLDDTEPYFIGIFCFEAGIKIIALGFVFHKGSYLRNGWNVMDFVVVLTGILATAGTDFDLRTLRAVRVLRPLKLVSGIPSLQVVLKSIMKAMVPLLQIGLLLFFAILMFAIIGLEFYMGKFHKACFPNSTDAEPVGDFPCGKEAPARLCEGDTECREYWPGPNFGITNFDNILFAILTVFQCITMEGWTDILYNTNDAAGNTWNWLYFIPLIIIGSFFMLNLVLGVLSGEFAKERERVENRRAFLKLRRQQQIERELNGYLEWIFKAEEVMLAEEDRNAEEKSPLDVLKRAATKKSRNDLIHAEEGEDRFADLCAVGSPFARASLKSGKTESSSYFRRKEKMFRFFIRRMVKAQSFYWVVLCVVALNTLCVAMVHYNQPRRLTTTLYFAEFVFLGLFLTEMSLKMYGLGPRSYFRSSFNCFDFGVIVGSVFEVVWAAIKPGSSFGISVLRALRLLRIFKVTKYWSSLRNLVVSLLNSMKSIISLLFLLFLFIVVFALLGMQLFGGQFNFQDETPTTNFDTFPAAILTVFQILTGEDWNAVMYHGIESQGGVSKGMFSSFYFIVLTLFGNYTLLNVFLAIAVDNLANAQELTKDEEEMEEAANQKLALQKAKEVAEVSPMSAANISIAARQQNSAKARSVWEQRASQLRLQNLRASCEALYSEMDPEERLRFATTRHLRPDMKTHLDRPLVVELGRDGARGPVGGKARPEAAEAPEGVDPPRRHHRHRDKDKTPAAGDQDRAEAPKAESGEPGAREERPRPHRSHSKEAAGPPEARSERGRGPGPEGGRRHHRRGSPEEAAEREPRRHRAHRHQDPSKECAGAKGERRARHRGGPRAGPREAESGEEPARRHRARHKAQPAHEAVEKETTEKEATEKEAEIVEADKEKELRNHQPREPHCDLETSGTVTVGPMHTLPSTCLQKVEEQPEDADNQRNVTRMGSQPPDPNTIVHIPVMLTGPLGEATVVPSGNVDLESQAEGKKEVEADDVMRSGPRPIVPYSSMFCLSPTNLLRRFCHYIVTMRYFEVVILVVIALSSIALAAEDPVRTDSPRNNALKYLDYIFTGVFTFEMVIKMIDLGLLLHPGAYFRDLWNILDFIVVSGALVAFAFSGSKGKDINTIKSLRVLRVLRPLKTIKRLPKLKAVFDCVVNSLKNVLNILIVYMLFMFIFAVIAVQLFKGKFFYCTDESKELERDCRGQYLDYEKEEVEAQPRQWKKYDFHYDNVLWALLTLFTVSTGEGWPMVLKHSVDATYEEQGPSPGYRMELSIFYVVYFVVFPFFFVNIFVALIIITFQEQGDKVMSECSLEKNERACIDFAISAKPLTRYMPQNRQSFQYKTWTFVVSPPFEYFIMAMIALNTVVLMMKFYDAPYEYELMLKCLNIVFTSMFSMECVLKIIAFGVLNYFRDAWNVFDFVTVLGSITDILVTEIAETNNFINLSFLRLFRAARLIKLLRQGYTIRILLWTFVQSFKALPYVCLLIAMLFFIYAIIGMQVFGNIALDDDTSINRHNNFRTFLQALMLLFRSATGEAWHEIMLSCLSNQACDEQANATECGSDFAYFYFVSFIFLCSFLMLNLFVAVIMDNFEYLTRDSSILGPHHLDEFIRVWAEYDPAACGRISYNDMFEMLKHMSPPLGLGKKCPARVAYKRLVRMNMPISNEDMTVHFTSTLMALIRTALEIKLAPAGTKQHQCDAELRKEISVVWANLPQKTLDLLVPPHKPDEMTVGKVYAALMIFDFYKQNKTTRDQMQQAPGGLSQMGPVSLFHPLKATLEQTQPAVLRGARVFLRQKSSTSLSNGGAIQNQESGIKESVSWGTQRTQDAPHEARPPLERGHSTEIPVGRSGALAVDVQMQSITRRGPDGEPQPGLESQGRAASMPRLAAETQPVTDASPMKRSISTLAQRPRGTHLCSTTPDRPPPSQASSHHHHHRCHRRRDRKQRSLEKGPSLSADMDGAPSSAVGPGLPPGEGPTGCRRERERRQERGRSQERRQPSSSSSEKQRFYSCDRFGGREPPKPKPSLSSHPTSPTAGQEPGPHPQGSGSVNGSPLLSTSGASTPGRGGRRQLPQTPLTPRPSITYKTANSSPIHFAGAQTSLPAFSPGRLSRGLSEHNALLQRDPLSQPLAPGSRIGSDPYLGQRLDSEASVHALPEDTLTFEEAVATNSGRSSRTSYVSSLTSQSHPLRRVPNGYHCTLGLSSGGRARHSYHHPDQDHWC
# Sequence (P54289 25-956 partner limits assumed): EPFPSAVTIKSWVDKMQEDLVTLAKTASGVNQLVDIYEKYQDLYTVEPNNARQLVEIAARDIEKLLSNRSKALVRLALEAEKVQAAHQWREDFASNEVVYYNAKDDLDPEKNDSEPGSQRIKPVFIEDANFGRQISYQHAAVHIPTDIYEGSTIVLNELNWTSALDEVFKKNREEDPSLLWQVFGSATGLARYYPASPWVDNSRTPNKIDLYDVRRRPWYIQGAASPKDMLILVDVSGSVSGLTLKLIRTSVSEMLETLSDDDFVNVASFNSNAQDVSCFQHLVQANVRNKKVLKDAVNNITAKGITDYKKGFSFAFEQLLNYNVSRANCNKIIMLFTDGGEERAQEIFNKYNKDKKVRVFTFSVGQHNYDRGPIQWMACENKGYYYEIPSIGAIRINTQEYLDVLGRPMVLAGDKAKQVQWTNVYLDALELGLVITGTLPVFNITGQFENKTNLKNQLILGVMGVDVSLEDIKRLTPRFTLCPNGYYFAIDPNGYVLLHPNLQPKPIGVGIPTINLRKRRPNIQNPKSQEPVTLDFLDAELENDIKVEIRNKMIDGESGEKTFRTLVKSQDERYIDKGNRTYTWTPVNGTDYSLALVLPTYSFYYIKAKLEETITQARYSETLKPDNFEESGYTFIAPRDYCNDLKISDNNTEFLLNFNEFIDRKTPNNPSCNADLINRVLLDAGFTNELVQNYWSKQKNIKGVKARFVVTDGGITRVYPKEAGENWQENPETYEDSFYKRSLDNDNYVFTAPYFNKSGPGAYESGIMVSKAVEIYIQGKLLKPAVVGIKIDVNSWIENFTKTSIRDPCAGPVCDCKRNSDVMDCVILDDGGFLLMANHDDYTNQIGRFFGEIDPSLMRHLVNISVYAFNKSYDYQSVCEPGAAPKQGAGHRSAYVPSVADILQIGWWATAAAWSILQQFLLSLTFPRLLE
# Sequence (P54289 957-1103 partner limits assumed): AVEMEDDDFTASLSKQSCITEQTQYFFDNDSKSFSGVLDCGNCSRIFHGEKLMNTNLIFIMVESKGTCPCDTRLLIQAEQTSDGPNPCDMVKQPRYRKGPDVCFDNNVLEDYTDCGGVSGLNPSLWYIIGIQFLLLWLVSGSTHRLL
# Sequence (P54284 whole entry partner): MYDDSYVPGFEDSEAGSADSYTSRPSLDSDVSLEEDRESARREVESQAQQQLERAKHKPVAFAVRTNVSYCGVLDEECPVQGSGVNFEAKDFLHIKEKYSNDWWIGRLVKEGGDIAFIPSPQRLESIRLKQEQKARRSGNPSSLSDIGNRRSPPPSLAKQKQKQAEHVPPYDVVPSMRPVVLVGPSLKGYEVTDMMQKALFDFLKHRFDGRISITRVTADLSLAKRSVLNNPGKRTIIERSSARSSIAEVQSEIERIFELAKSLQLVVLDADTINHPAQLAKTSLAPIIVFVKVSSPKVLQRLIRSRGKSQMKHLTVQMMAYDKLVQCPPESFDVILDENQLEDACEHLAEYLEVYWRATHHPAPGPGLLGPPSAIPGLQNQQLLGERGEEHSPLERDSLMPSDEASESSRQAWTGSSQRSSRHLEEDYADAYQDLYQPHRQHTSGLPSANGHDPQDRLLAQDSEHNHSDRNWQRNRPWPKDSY
# protocol: Inhibition of N-type calcium flux in IMR-32 cells (Indo-1 fluorescence, nitrendipine present)
# Type: cell-based
# applied_conditions: 1 μM
measurement_kind: Inhibition of Calcium Flux in IMR-32 Cells % Inhibition at 1 μM (%)
Please reply with the bare figure in % and do not write the unit itself.

As a guide, the following entries are already answered.
IN: Which measured Inhibition of Calcium Flux in IMR-32 Cells % Inhibition at 1 μM value corresponds to CC(C)C[C@H](NC(=O)Nc1ccc(Br)cc1)C(=O)N[C@@H](Cc1ccc(OCc2ccccc2)cc1)C(=O)OC(C)(C)C (relative stereo) ?
OUT: 49

IN: Which measured Inhibition of Calcium Flux in IMR-32 Cells % Inhibition at 1 μM value corresponds to CC(C)C[C@H](NC(=O)Nc1cccc2ccccc12)C(=O)N[C@@H](Cc1ccc(OCc2ccccc2)cc1)C(=O)OC(C)(C)C (relative stereo) ?
OUT: 23

New cases:
IN: Which measured Inhibition of Calcium Flux in IMR-32 Cells % Inhibition at 1 μM value corresponds to CC(C)C[C@H](NC(=O)NC1CC1c1ccccc1)C(=O)N[C@@H](Cc1ccc(OCc2ccccc2)cc1)C(=O)OC(C)(C)C (relative stereo) ?
OUT: 28

IN: Which measured Inhibition of Calcium Flux in IMR-32 Cells % Inhibition at 1 μM value corresponds to CC(C)C[C@H](NC(=O)N1CCCCCC1)C(=O)N[C@@H](Cc1ccc(OCc2ccccc2)cc1)C(=O)NCc1cccc(I)c1 (relative stereo) ?
OUT: 53

IN: Which measured Inhibition of Calcium Flux in IMR-32 Cells % Inhibition at 1 μM value corresponds to COc1ccc(C(=O)N[C@@H](CC(C)C)C(=O)N[C@@H](Cc2ccc(OCc3ccccc3)cc2)C(=O)OC(C)(C)C)cc1OC (relative stereo) ?
OUT: 18

IN: Which measured Inhibition of Calcium Flux in IMR-32 Cells % Inhibition at 1 μM value corresponds to CC(C)C[C@H](NC(=S)Nc1ccc(C(C)(C)C)cc1)C(=O)N[C@@H](Cc1ccc(OCc2ccccc2)cc1)C(=O)OC(C)(C)C (relative stereo) ?
OUT: 28

IN: Which measured Inhibition of Calcium Flux in IMR-32 Cells % Inhibition at 1 μM value corresponds to CC(C)C[C@H](NC(=O)NCc1ccccc1)C(=O)N[C@@H](Cc1ccc(OCc2ccccc2)cc1)C(=O)OC(C)(C)C (relative stereo) ?
OUT: 24

IN: Which measured Inhibition of Calcium Flux in IMR-32 Cells % Inhibition at 1 μM value corresponds to CC(C)C[C@H](NC(=O)Nc1cccc(C(F)(F)F)c1)C(=O)N[C@@H](Cc1ccc(OCc2ccccc2)cc1)C(=O)OC(C)(C)C (relative stereo) ?
OUT: 27

IN: Which measured Inhibition of Calcium Flux in IMR-32 Cells % Inhibition at 1 μM value corresponds to CC(C)C[C@H](NC(=O)c1ccc2c(c1)OCO2)C(=O)N[C@@H](Cc1ccc(OCc2ccccc2)cc1)C(=O)OC(C)(C)C (relative stereo) ?
OUT: 30

IN: Which measured Inhibition of Calcium Flux in IMR-32 Cells % Inhibition at 1 μM value corresponds to CC(C)C[C@H](NC(=O)N1CCCCCC1)C(=O)N[C@@H](Cc1ccc(OCc2ccccc2)cc1)C(=O)N1CCC(O)CC1 (relative stereo) ?
OUT: 20

The origin of these recorded values is patent US6423689B1.
